Target: MRGPRX4-83S (Homo sapiens, UniProt Q96LA9, L83S)
Sequence (Q96LA9 whole entry L83S): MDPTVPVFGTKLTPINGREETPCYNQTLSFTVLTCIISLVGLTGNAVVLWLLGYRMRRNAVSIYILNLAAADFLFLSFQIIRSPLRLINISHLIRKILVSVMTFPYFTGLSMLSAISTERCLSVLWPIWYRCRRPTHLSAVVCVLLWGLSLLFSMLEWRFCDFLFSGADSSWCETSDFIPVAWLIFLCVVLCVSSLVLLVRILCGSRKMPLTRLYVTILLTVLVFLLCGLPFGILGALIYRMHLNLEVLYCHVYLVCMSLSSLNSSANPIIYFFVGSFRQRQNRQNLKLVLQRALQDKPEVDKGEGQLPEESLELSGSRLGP
Test: Calcium assay (human glioblastoma LN229 cells expressing the MRGPRX4-83S)
Assay type: cell-based
Set-up: LN229 glioblastoma cells natively expressing the MRGPRX4-83S; endogenous in cells; host or cells: LN229 human glioblastoma cells
Details: LN-229; Table 2; efficacy based on 30 μM H-1 (set as 100%); read-out: Emax
The molecules listed here are annotated with their Emax.

>  <MOLECULE>
C#CCn1c(=O)c2[nH]c(CCc3ccccc3OC)nc2n(CCCCP(=O)(O)O)c1=O

>  <Emax (%)>
132

$$$$
>  <MOLECULE>
C#CCn1c(=O)c2c(nc(CCc3cccc(OC)c3)n2C)n(CCCOP(=O)(O)O)c1=O [H-1, reference compound]

>  <Emax (%)>
98

$$$$
>  <MOLECULE>
C#CCn1c(=O)c2[nH]c(CCc3ccc(OC)cc3OC)nc2n(CCCCP(=O)(O)O)c1=O

>  <Emax (%)>
82

$$$$
>  <MOLECULE>
C#CCn1c(=O)c2c(nc(CCc3ccccc3Br)n2C)n(CCCCP(=O)(O)O)c1=O

>  <Emax (%)>
108

$$$$
>  <MOLECULE>
COc1cccc(CCc2nc3c([nH]2)c(=O)n(CC2CCC2)c(=O)n3CCCCP(=O)(O)O)c1

>  <Emax (%)>
91

$$$$
>  <MOLECULE>
C#CCn1c(=O)c2[nH]c(CCc3ccccc3)nc2n(CCCCP(=O)(O)O)c1=O

>  <Emax (%)>
92

$$$$
>  <MOLECULE>
C#CCn1c(=O)c2c(nc(CCc3cccc(C(F)(F)F)c3)n2C)n(CCCCP(=O)(O)O)c1=O

>  <Emax (%)>
137

$$$$
>  <MOLECULE>
C#CCn1c(=O)c2[nH]c(CCc3cccc(OC)c3)nc2n(CCCCP(=O)(O)O)c1=O

>  <Emax (%)>
99

$$$$

* * *

Target: MRGPRX4-83S (Homo sapiens, UniProt Q96LA9, L83S)
Assay: Calcium assay (human glioblastoma LN229 cells expressing the MRGPRX4-83S)
Type: cell-based
Parameters: LN229 glioblastoma cells natively expressing the MRGPRX4-83S; endogenous in cells; host or cells: LN229 human glioblastoma cells
pEC50: −log10 of the molar value.
OBSERVABLE: pEC50

>  <COMPOUND>
C#CCn1c(=O)c2c(nc(CCc3ccccc3Br)n2CCCl)n(CCCCP(=O)(O)O)c1=O [B-50]

>  <TARGET SYSTEM>
MRGPRX4-83S (Homo sapiens, UniProt Q96LA9, L83S)

>  <OBSERVABLE>
pEC50

>  <OBSERVED VALUE>
10.02

$$$$

* * *

The compounds listed here are annotated with their melting point.

>  <COMPOUND>
C#CCn1c(=O)c2c(nc(CCc3ccccc3I)n2C(C)C)n(CCCCP(=O)(O)O)c1=O [B-47]

>  <melting point>
123 to 125 °C

$$$$
>  <COMPOUND>
C#CCn1c(=O)c2c(nc(CCc3ccccc3Br)n2CC)n(CCCCCCP(=O)(O)O)c1=O [B-57]

>  <melting point>
223 to 225 °C

$$$$
>  <COMPOUND>
C#CCn1c(=O)c2c(nc(CCc3ccccc3Br)n2C(C)CC)n(CCCCP(=O)(O)O)c1=O (centres unmarked) [B-49]

>  <melting point>
105 to 107 °C

$$$$
>  <COMPOUND>
C#CCn1c(=O)c2c(nc(CCc3ccc(Br)cc3)n2CC)n(CCCCP(=O)(O)O)c1=O [B-35]

>  <melting point>
169 to 171 °C

$$$$
>  <COMPOUND>
C#CCn1c(=O)c2c(nc(CCc3ccccc3Br)n2CCO)n(CCCCP(=O)(O)O)c1=O [B-20]

>  <melting point>
157 to 160 °C

$$$$
>  <COMPOUND>
C#CCn1c(=O)c2c(nc(CCc3ccccc3Br)n2Cc2ccccc2)n(CCCCP(=O)(O)O)c1=O [B-23]

>  <melting point>
126 to 129 °C

$$$$
>  <COMPOUND>
C#CCn1c(=O)c2c(nc(CCc3ccccc3C)n2CC)n(CCCCP(=O)(O)O)c1=O [B-32]

>  <melting point>
152 to 154 °C

$$$$
>  <COMPOUND>
C#CCn1c(=O)c2[nH]c(CCc3ccccc3OC)nc2n(CCCCP(=O)(O)O)c1=O [B-7]

>  <melting point>
169 to 172 °C

$$$$
>  <COMPOUND>
C#CCn1c(=O)c2c(nc(CCc3ccc(C(F)(F)F)cc3)n2CC2CCCC2)n(CCCCP(=O)(O)O)c1=O [B-40]

>  <melting point>
101 to 102 °C

$$$$
>  <COMPOUND>
C#CCn1c(=O)c2c(nc(CCc3ccc(CC)cc3)n2CC2CCCC2)n(CCCCP(=O)(O)O)c1=O [B-42]

>  <melting point>
133 to 135 °C

$$$$
>  <COMPOUND>
C#CCn1c(=O)c2c(nc(CCc3ccccc3Br)n2CC)n(CCCCP(=O)(O)O)c1=O [B-19]

>  <melting point>
192 to 195 °C

$$$$
>  <COMPOUND>
C#CCn1c(=O)c2c(nc(CCc3ccccc3Br)n2CC2CC2)n(CCCCP(=O)(O)O)c1=O [B-21]

>  <melting point>
181 to 184 °C

$$$$
>  <COMPOUND>
C#CCn1c(=O)c2[nH]c(CCc3ccccc3Cl)nc2n(CCCCP(=O)(O)O)c1=O [B-9]

>  <melting point>
207 to 209 °C

$$$$
>  <COMPOUND>
C#CCn1c(=O)c2c(nc(CCc3ccccc3F)n2CC)n(CCCCP(=O)(O)O)c1=O [B-30]

>  <melting point>
197 to 199 °C

$$$$
>  <COMPOUND>
C#CCn1c(=O)c2c(nc(CCc3ccccc3Br)n2CC2CCC2)n(CCCCP(=O)(O)O)c1=O [B-45]

>  <melting point>
167 to 169 °C

$$$$
>  <COMPOUND>
C#CCn1c(=O)c2c(nc(CCc3cccc(C(F)(F)F)c3)n2C)n(CCCCP(=O)(OCC)OCC)c1=O [C-5]

>  <melting point>
121 to 124 °C

$$$$
>  <COMPOUND>
CCOP(=O)(CCCCn1c(=O)n(CC2CCC2)c(=O)c2[nH]c(CCc3cccc(OC)c3)nc21)OCC [C-7]

>  <melting point>
82 to 84 °C

$$$$

* * *

Molecular target: human MRGPRX4-83L (Homo sapiens)
Construct: host or cells: CHO β-arrestin cells
Sequence (Q96LA9 whole entry): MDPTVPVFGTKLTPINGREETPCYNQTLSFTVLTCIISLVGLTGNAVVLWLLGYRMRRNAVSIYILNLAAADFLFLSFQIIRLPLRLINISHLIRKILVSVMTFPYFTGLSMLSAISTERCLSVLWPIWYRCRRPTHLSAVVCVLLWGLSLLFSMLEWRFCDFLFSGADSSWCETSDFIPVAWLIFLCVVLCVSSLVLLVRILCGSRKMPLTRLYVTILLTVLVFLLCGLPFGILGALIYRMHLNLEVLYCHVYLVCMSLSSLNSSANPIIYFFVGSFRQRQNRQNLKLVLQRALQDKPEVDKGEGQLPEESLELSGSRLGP
Assay: β-arrestin assay (CHO β-arrestin ARMS1-ProLink 2 human MRGPRX4 83L)
Format: cell-based
Conditions: Table 4; β-arrestin recruitment, CHO cells, MRGPRX4-83L; read-out: EC50 ± SEM
pEC50: −log10 of the molar value.
The molecules listed here are annotated with their pEC50.

>  <SUBSTANCE SMILES>
C#CCn1c(=O)c2c(nc(CCc3c(Cl)cccc3Cl)n2CC)n(CCCCP(=O)(O)O)c1=O

>  <pEC50>
8.04

$$$$
>  <SUBSTANCE SMILES>
C#CCn1c(=O)c2c(nc(CCc3ccccc3Br)n2CC2CCCC2)n(CCCCP(=O)(O)O)c1=O

>  <pEC50>
6.77

$$$$
>  <SUBSTANCE SMILES>
C#CCn1c(=O)c2c(nc(CCc3ccccc3Br)n2CC2CCCCC2)n(CCCCP(=O)(O)O)c1=O

>  <pEC50>
5.90

$$$$
>  <SUBSTANCE SMILES>
C#CCn1c(=O)c2c(nc(CCc3ccccc3F)n2CC)n(CCCCP(=O)(O)O)c1=O

>  <pEC50>
6.58

$$$$
>  <SUBSTANCE SMILES>
C#CCn1c(=O)c2c(nc(CCc3ccccc3Br)n2CC)n(CCCCCCP(=O)(O)O)c1=O

>  <pEC50>
6.12

$$$$
>  <SUBSTANCE SMILES>
C#CCn1c(=O)c2c(nc(CCc3ccccc3Br)n2C)n(CCCCCP(=O)(O)O)c1=O

>  <pEC50>
5.97

$$$$
>  <SUBSTANCE SMILES>
C#CCn1c(=O)c2nc(CCc3ccc(Br)cc3)[nH]c2n(CCCCP(=O)(O)O)c1=O

>  <pEC50>
5.56

$$$$
>  <SUBSTANCE SMILES>
C#CCn1c(=O)c2[nH]c(CCc3ccccc3Br)nc2n(CCCCCCP(=O)(O)O)c1=O

>  <pEC50>
6.07

$$$$

* * *

The compounds listed here are annotated with their Emax.
Molecular target: MRGPRX4-83S (Homo sapiens, UniProt Q96LA9, L83S)
Test: β-arrestin assay (CHO β-arrestin human MRGPRX4-83S)
Format: cell-based
Design: host or cells: CHO β-arrestin cells
Conditions: Table 3; efficacy based on 100 nM B-16 (set as 100%); read-out: Emax
OBSERVABLE: Emax (%)

>  <SUBSTANCE SMILES>
C#CCn1c(=O)c2c(nc(CCc3ccccc3Br)n2CC2CCC2)n(CCCCP(=O)(O)O)c1=O

>  <VALUE UNITS>
%

>  <OBSERVED VALUE>
93

$$$$
>  <SUBSTANCE SMILES>
C#CCn1c(=O)c2c(nc(CCc3ccc(CC)cc3)n2CC2CCCC2)n(CCCCP(=O)(O)O)c1=O

>  <VALUE UNITS>
%

>  <OBSERVED VALUE>
92

$$$$
>  <SUBSTANCE SMILES>
C#CCn1c(=O)c2c(nc(CCc3ccc(-c4ccccc4)cc3)n2CC2CCCC2)n(CCCCP(=O)(O)O)c1=O

>  <VALUE UNITS>
%

>  <OBSERVED VALUE>
43

$$$$
>  <SUBSTANCE SMILES>
C#CCn1c(=O)c2c(nc(CCc3ccc(Br)cc3)n2CC2CCCC2)n(CCCCP(=O)(O)O)c1=O

>  <VALUE UNITS>
%

>  <OBSERVED VALUE>
79

$$$$
>  <SUBSTANCE SMILES>
C#CCn1c(=O)c2c(nc(CCc3ccccc3Br)n2CCN)n(CCCCP(=O)(O)O)c1=O

>  <VALUE UNITS>
%

>  <OBSERVED VALUE>
99

$$$$
>  <SUBSTANCE SMILES>
C#CCn1c(=O)c2c(nc(CCc3ccc(C(C)C)cc3)n2CC2CCCC2)n(CCCCP(=O)(O)O)c1=O

>  <VALUE UNITS>
%

>  <OBSERVED VALUE>
53

$$$$
>  <SUBSTANCE SMILES>
C#CCn1c(=O)c2c(nc(CCc3c(C)cccc3C)n2CC)n(CCCCP(=O)(O)O)c1=O

>  <VALUE UNITS>
%

>  <OBSERVED VALUE>
113

$$$$
>  <SUBSTANCE SMILES>
C#CCn1c(=O)c2c(nc(CCc3c(Cl)cccc3Cl)n2CC)n(CCCCP(=O)(O)O)c1=O

>  <VALUE UNITS>
%

>  <OBSERVED VALUE>
110

$$$$
